Give degree of transisomerization for every item shown.
Test: Transisomerization of unsaturated fatty acids in coatings on balloon catheters (FTIR)
Format: physicochemical
Details: top coating with PEG, after 2 month
Protocol: The natural phospholipids POPC and SLPE, as well as the analogous nitrated phospholipids as shown in example C(PNOPC) and […]), as well as the phospholipids according to examples […], and S as a mono substance and as a combination of the native phospholipids and the corresponding nitro-carboxylic acid (s)-containing phospholipids mixed in a ratio of 1:1 were used for this investigation. […] After 24 hours and after 2 months the phospholipids coated on the balloon surface were detached and analyzed. […]
Give bare numbers, in %.

Example results:
compound: CCCCCCCC/C=C\CCCCCCCC(=O)O[C@H](COC(=O)CCCCCCCCCCCCCCC)COP(=O)([O-])OCC[N+](C)(C)C [POPC, 1-Palmitoyl-2-oleoyl-sn-glycero-3-PC, reference compound]
u: %
degree of transisomerization: 86

compound: CCCCCCCC/C=C(\CCCCCCCC(=O)O[C@H](COC(=O)CCCCCCCCCCCCCCC)COP(=O)([O-])OCC[N+](C)(C)C)[N+](=O)[O-]
u: %
degree of transisomerization: 32

compound: CCCCC/C=C\C/C=C\CCCCCCCC(=O)O[C@H](COC(=O)CCCCCCCCCCCCCCCCC)COP(=O)(O)OCCN [SLPE, reference compound]
u: %
degree of transisomerization: 92

Next compound, degree of transisomerization to be filled in.
Tell me measured degree of transisomerization for CCCCC/C=C\C/C=C(\CCCCCCCC(=O)O[C@H](COC(=O)CCCCCCCCCCCCCCCCC)COP(=O)(O)OCCN)[N+](=O)[O-] please.
33

----------
Experiment: Transisomerization of unsaturated fatty acids in coatings on balloon catheters (FTIR)
Type: physicochemical
Conditions: coatings after 2 months
Exercise: state measured degree of transisomerization for each of the compounds provided.
Answers are plain numbers, in %.

Some solved cases for reference:
compound: CCCCCCCC/C=C\CCCCCCCC(=O)O[C@H](COC(=O)CCCCCCCCCCCCCCC)COP(=O)([O-])OCC[N+](C)(C)C [POPC, 1-Palmitoyl-2-oleoyl-sn-glycero-3-PC, reference compound]
u: %
recorded number: 95
//
compound: CCCCCCCC/C=C(\CCCCCCCC(=O)O[C@H](COC(=O)CCCCCCCCCCCCCCC)COP(=O)([O-])OCC[N+](C)(C)C)[N+](=O)[O-]
u: %
recorded number: 30
//
compound: CCCCC/C=C\C/C=C\CCCCCCCC(=O)O[C@H](COC(=O)CCCCCCCCCCCCCCCCC)COP(=O)(O)OCCN [SLPE, reference compound]
u: %
recorded number: 98

Tell me measured degree of transisomerization for CCCCC/C=C\C/C=C(\CCCCCCCC(=O)O[C@H](COC(=O)CCCCCCCCCCCCCCCCC)COP(=O)(O)OCCN)[N+](=O)[O-] please.
32

----------
For each of the compounds below, state its loss of viability of heart muscle cells after hypoxia.
Tested on: Cardiac muscle cells derived from neonatal rat heart
Test: Hypoxia of cardiac muscle cells (viability, mitochondrial NAD+)
Format: cell-based
Conditions: (10 minutes)
Numbers only, in %.

Sample records with loss of viability of heart muscle cells after hypoxia:
compound: CCCCCCCC/C=C(\CCCCCCCC(=O)O[C@H](COC(=O)CCCCCCCCCCCCCCCCC)COP(=O)([O-])OCC[N+](C)(C)C)[N+](=O)[O-] [Example P14]
target system: Cardiac muscle cells derived from neonatal rat heart
recorded number: 6

compound: CCCCC/C=C\CC=C(CCCCCCCC(=O)O[C@H](COC(=O)CCCCCCCCCCCCCCC)COP(=O)([O-])OCC[N+](C)(C)C)[N+](=O)[O-] [Example P7]
target system: Cardiac muscle cells derived from neonatal rat heart
recorded number: 5

compound: CCCCC/C=C\C/C=C\CCCCCCCC(=O)O[C@H](COC(=O)CCCCCCCCCCCCCCC)COP(=O)([O-])OCC[N+](C)(C)C [PLPC, 1-Palmitoyl-2-linoleoyl-sn-glycero-3-PC, reference compound]
target system: Cardiac muscle cells derived from neonatal rat heart
recorded number: 16

Alright, here's another compound for you.
Report value: loss of viability of heart muscle cells after hypoxia, system: Cardiac muscle cells derived from neonatal rat heart, compound: CCCCCCCC/C=C\CCCCCCCC(=O)O[C@H](COC(=O)CCCCCCCCCCCCCCCCC)COP(=O)([O-])OCC[N+](C)(C)C [SOPC, 1-Stearoyl-2-oleoyl-sn-glycero-3-PC, reference compound]
14

----------
Give measured mitochondrial NAD+ content for each item. Keep answers brief.
System: Cardiac muscle cells derived from neonatal rat heart
Experiment: Hypoxia of cardiac muscle cells (viability, mitochondrial NAD+)
Format: cell-based
Conditions: hypoxia, first printed value; baseline 5
Give bare numbers, in nmol/mg protein.

molecule: CCCCC/C=C\CC=C(CCCCCCCC(=O)O[C@H](COC(=O)CCCCCCCCCCCCCCC)COP(=O)([O-])OCC[N+](C)(C)C)[N+](=O)[O-]
mitochondrial NAD+ content (nmol/mg protein): 3.6

molecule: CCCCC/C=C\C/C=C\CCCCCCCC(=O)O[C@H](COC(=O)CCCCCCCCCCCCCCC)COP(=O)([O-])OCC[N+](C)(C)C [PLPC, 1-Palmitoyl-2-linoleoyl-sn-glycero-3-PC, reference compound]
mitochondrial NAD+ content (nmol/mg protein): 2.4

molecule: CCCCCCCC/C=C(\CCCCCCCC(=O)O[C@H](COC(=O)CCCCCCCCCCCCCCCCC)COP(=O)([O-])OCC[N+](C)(C)C)[N+](=O)[O-]
mitochondrial NAD+ content (nmol/mg protein): 3.8

We next turn to a different molecule, shown below.
Given CCCCCCCC/C=C\CCCCCCCC(=O)O[C@H](COC(=O)CCCCCCCCCCCCCCCCC)COP(=O)([O-])OCC[N+](C)(C)C [SOPC, 1-Stearoyl-2-oleoyl-sn-glycero-3-PC, reference compound] , respond with its mitochondrial NAD+ content.
3.0

----------
Test system: HeLa, HUVEC and L929 fibroblast
Test: cells
Assay type: cell-based
Settings: after 48 hours, for the different cell lines; read-out: EC50 concentration (MTT assay)
pEC50: −log10 of the molar value.
measured endpoint: pEC50

Answered examples (3):
given smiles: CCCCC/C=C\C/C=C\CCCCCCCC(=O)O
pEC50: 3.59 to 3.62
--
given smiles: CCCCC/C=C\C/C=C(\CCCCCCCC(=O)O)[N+](=O)[O-]
pEC50: 4.00 to 4.30
--
given smiles: CCCCCCCC/C=C(\CCCCCCCC(=O)O)[N+](=O)[O-]
pEC50: 4.30 to 5.00

Consider now this further compound.
Specify the recorded pEC50 for CCCCCCCC/C=C\CCCCCCCC(=O)O , system: HeLa, HUVEC and L929 fibroblast.
3.59 to 3.74

----------
Tested on: cortical neurons
Assay: Hypoxia and reperfusion of cortical neurons (viability, LDH)
Conditions: 30-minutes ischemia
I'd appreciate it if you could supply viability of cortical cells measured after 24 hours values for the items below.
Give bare numbers, in %.

Examples with their reported viability of cortical cells measured after 24 hours follow.
compound: CCCCC/C=C\C/C=C\CCCCCCCC(=O)O[C@H](COC(=O)CCCCCCCCCCCCCCC)COP(=O)([O-])OCC[N+](C)(C)C [PLPC, 1-Palmitoyl-2-linoleoyl-sn-glycero-3-PC, reference compound]
target system: cortical neurons
u: %
recorded number: 0
//
compound: CCCCCCCC/C=C\CCCCCCCC(=O)O[C@H](COC(=O)CCCCCCCCCCCCCCCCC)COP(=O)([O-])OCC[N+](C)(C)C [SOPC, 1-Stearoyl-2-oleoyl-sn-glycero-3-PC, reference compound]
target system: cortical neurons
u: %
recorded number: 0
//
compound: CCCCC/C=C\CC=C(CCCCCCCC(=O)O[C@H](COC(=O)CCCCCCCCCCCCCCC)COP(=O)([O-])OCC[N+](C)(C)C)[N+](=O)[O-]
target system: cortical neurons
u: %
recorded number: 52

# ---- query compound ----
Name the recorded viability of cortical cells measured after 24 hours of CCCCCCCC/C=C(\CCCCCCCC(=O)O[C@H](COC(=O)CCCCCCCCCCCCCCCCC)COP(=O)([O-])OCC[N+](C)(C)C)[N+](=O)[O-] , assay system cortical neurons.
54

----------
Test system: Cardiac muscle cells derived from neonatal rat heart
Experiment: Hypoxia of cardiac muscle cells (viability, mitochondrial NAD+)
Type: cell-based
Design: concentration or dose not given beside the values
Conditions: (30 minutes)
Description: Cardiac muscle cells derived from neonatal rat heart (Nitobe J, et al, Reactive oxygene species regulate FLICE inhibitory protein and susceptibility to FAS-mediated apoptosis in cardiac myocytes. Cardiovasc RES 2003, 119-28). The heart muscle cells were cultured in Dulbecco/Eagle medium (DMEM) with 10% FCS added under standard conditions for two days. […] The NAD^+ content was determined by fluoroscopy, and normalized to the protein content (Veloso, D., and […]., 1974;) Anal. Biochem., 449-450).
Exercise: for every item that follows, state its recorded loss of viability of heart muscle cells after hypoxia.
One number for each entry, in %.

Here is how some compounds turned out for loss of viability of heart muscle cells after hypoxia.
compound: CCCCCCCC/C=C\CCCCCCCC(=O)O[C@H](COC(=O)CCCCCCCCCCCCCCCCC)COP(=O)([O-])OCC[N+](C)(C)C [SOPC, 1-Stearoyl-2-oleoyl-sn-glycero-3-PC, reference compound]
u: %
recorded number: 40
--
compound: CCCCCCCC/C=C(\CCCCCCCC(=O)O[C@H](COC(=O)CCCCCCCCCCCCCCCCC)COP(=O)([O-])OCC[N+](C)(C)C)[N+](=O)[O-] [Example P14]
u: %
recorded number: 16
--
compound: CCCCC/C=C\C/C=C\CCCCCCCC(=O)O[C@H](COC(=O)CCCCCCCCCCCCCCC)COP(=O)([O-])OCC[N+](C)(C)C [PLPC, 1-Palmitoyl-2-linoleoyl-sn-glycero-3-PC, reference compound]
u: %
recorded number: 42

# ---- query compound ----
Recall and state the measured loss of viability of heart muscle cells after hypoxia for CCCCC/C=C\CC=C(CCCCCCCC(=O)O[C@H](COC(=O)CCCCCCCCCCCCCCC)COP(=O)([O-])OCC[N+](C)(C)C)[N+](=O)[O-] [Example P7] .
18
